Measured values drawn from ChEMBL document CHEMBL3351668 for this set.

- Tested on: Staphylococcus aureus
- PROCEDURE_SUMMARY: Antibacterial activity against Staphylococcus aureus RCMB 010028 at 100 umol/ml after 24 hrs by well diffusion assay
- Assay type: functional
met means recorded diameter of the inhibition zone (DIZ) is 20 mm or above; not met means it is below 20 mm.

Some solved cases for reference:
Nc1ccc(S(=O)(=O)Nc2ncccn2)cc1 [SULFADIAZINE]    not met
Nc1ccc(S(N)(=O)=O)cc1 [SULFANILAMIDE]    not met
COc1ccc(Cc2nn(CC(=O)Nc3ccc(S(N)(=O)=O)cc3)c(=O)c3ccccc23)cc1    met
NS(=O)(=O)c1ccc(NC(=O)Cn2nc(-c3ccccc3)c3ccccc3c2=O)cc1    not met
O=C(Cn1nc(-c2ccccc2)c2ccccc2c1=O)Nc1ccc(S(=O)(=O)Nc2ncccn2)cc1    met

Please find the next compound below.
Exercise: Textbook exercise: given the entry `O=C(Cn1nc(-c2ccccc2)c2ccccc2c1=O)Nc1ccc(S(=O)(=O)Nc2nccs2)cc1` , state whether its diameter of the inhibition zone (DIZ) is greater than or equal to 20 mm.
Solution: not met
